All figures here come from patent US20130217572A1.

Test system: gum arabic
Experiment: VHH binding to gum arabic in ELISA
Parameters: species or system acacia tree
Conditions: [VHH] 0.04688 μg/ml (3.125 nM); gum arabic 100 μg/ml
# absorbance at 405 nm listing for each entry below

{"columns": ["MOLECULE", "absorbance at 405 nm"],
 "data": [
  ["VHH7C2: plant-binding VHH, listed among SEQ ID NO:1-42 (protein, listed as Lama glama, 7C2) VHH: QVQLQESGGGLVQPGGSLRLSCAAFGFALANYGIGWFRQAPGKDRERVSCDSVDDGSTHYSNSVQGRFTIIRDNAKNTVFLQMNSLKAEDTAVYYCATTDCDATTWGTWINYRGQGTQVTVSS", 0.092],
  ["VHH 5D4 (VHH, Hexahistidine-tagged) VHH: QVQLQESGGGLVQPGGSLRLSCAASGFDMRRFGIGWFRQVAGKEREGVSCSNVHDGTTYYTNDVKGRFTIVRDNTKNMLYLQMNKLRPEDTAVYSCATTDCEATAWGTYRGYFGQGTQVTVSS", 0.134]
]}
